Target: Adenosine receptor A1 (Homo sapiens); also: in other assays of this panel Not Active means under 50% inhibition at 10 µM;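 also: radioligand binding assay at the adenosine A1 receptor, with DPCPX serving as the labelled ligand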
Sequence (P30542 whole entry): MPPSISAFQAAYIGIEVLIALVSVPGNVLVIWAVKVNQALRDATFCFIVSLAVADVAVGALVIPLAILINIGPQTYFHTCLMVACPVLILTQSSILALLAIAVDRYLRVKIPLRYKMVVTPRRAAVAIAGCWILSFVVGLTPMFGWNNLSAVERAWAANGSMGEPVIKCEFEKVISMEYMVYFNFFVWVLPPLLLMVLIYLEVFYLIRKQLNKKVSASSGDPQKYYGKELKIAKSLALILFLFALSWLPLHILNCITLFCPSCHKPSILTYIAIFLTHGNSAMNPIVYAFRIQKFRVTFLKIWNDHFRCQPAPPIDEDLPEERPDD
Type: cell membranes, CHO, Membrane
Details: cho
Endpoint: IC50

| Molecule | Assay System | Reading |
| --- | --- | --- |
| CCCCCCCCCc1ccc(O)cc1 | Adenosine receptor A1 (Homo sapiens) | Not Active |
| Cc1cc(NS(=O)(=O)c2ccc(N)cc2)no1 | Adenosine receptor A1 (Homo sapiens) | Not Active |
| NC(=O)c1ncn([C@@H]2O[C@H](CO)[C@@H](O)[C@H]2O)n1 | Adenosine receptor A1 (Homo sapiens) | Not Active |
| Cc1ccccc1N1CCN(CCc2nnc3n2CCCC3)CC1 | Adenosine receptor A1 (Homo sapiens) | Not Active |
| CC(C)(Oc1ccc(CCNC(=O)c2ccc(Cl)cc2)cc1)C(=O)O [BEZAFIBRATE] | Adenosine receptor A1 (Homo sapiens) | Not Active |
| CNC(=O)Oc1ccc2c(c1)[C@]1(C)CCN(C)[C@@H]1N2C | Adenosine receptor A1 (Homo sapiens) | Not Active |
| C=C1C(=O)O[C@@H]2C3O[C@]3(C)CC/C=C(\C)CC[C@@H]12 (stereo partly drawn) | Adenosine receptor A1 (Homo sapiens) | Not Active |
| COc1c(C)c2c(c(O)c1C/C=C(\C)CCC(=O)OCCN1CCOCC1)C(=O)OC2 [MYCOPHENOLATE MOFETIL] | Adenosine receptor A1 (Homo sapiens) | Not Active |
| CN[C@@H]1[C@@H](O)[C@@H](O[C@@H]2[C@@H](O)[C@H](O[C@H]3OC(CN)=CC[C@H]3N)[C@@H](N)C[C@H]2N)OC[C@]1(C)O | Adenosine receptor A1 (Homo sapiens) | Not Active |
| COc1ccc(CN(CCN(C)C)c2ccccn2)cc1 | Adenosine receptor A1 (Homo sapiens) | Not Active |
| NCCCC[C@H](N[C@@H](CCc1ccccc1)C(=O)O)C(=O)N1CCC[C@H]1C(=O)O [LISINOPRIL ANHYDROUS] | Adenosine receptor A1 (Homo sapiens) | Not Active |
| C=C(C)[C@@H]1[C@H]2OC(=O)[C@@H]1[C@]1(O)C[C@H]3O[C@]34C(=O)O[C@H]2[C@]14C | Adenosine receptor A1 (Homo sapiens) | Not Active |
| O=C1OCCN1/N=C/c1ccc([N+](=O)[O-])o1 | Adenosine receptor A1 (Homo sapiens) | Not Active |
| CC1=Nc2ccc(Cl)cc2S(=O)(=O)N1 [DIAZOXIDE] | Adenosine receptor A1 (Homo sapiens) | Not Active |
| CC[C@@]1(O)C(=O)OCc2c1cc1n(c2=O)Cc2cc3ccccc3nc2-1 | Adenosine receptor A1 (Homo sapiens) | Not Active |
| CC(C)(C)NC(=O)[C@@H]1CN(Cc2cccnc2)CCN1C[C@@H](O)C[C@@H](Cc1ccccc1)C(=O)N[C@H]1c2ccccc2C[C@H]1O.O | Adenosine receptor A1 (Homo sapiens) | Not Active |
| COC(=O)c1ccc(O)cc1 | Adenosine receptor A1 (Homo sapiens) | Not Active |
| CN1[C@@H]2CC[C@H]1C[C@@H](OC(=O)c1c[nH]c3ccccc13)C2 | Adenosine receptor A1 (Homo sapiens) | Not Active |

====

Molecular target: C-C chemokine receptor type 5 (Homo sapiens, UniProt P51681); also: in other assays of this panel Not Active means under 50% inhibition at 10 µM
Sequence (P51681 whole entry): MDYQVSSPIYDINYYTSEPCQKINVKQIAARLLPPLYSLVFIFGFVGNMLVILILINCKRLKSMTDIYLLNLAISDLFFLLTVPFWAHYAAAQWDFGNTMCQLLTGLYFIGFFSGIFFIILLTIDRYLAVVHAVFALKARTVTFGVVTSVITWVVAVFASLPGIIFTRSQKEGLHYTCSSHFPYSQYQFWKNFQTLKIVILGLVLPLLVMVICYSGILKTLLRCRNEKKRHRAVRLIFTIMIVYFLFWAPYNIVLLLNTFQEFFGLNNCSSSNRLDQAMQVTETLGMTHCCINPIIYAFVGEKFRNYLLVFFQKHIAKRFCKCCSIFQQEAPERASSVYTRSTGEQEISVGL
Assay type: cell membranes, Membrane
Conditions: hek293

| Substance | IC50 |
| --- | --- |
| GOLD SODIUM THIOMALATE | Not Active |
| CARBOPLATIN | Not Active |
| CISPLATIN | Not Active |
| OXALIPLATIN | Not Active |
| IVERMECTIN | Not Active |
